Provide the reported Emax of each item.
Test system: muscle progenitors (hMP) from DMD hiPSC or WT hiPSC
PROTOCOL_SUMMARY: Myotube assay: myogenic activity (total myotube area per well)
Type: cell-based, human
CONDITION_NOTES: Homo sapiens, 72 h; myotube assay, compounds incubated 3 days; read-out: MA (normalized Myotube Area, efficacy)

Some molecules with recorded Emax:
{"columns": ["MOLECULE", "VALUE_OBSERVED"],
 "data": [
  ["O=C(Nc1ccc(Oc2ccnc3[nH]c(=O)cnc23)cc1F)Nc1c(-c2ccccc2)nn2c1CCC2 [(y)]", "25 to 50%"],
  ["CCOC(=O)Nc1cc(Oc2ccc(NC(=O)Nc3cc(C(C)(C)C)no3)c3ccccc23)ccn1 [(db)]", "≥ 75%"],
  ["CSc1cc(Oc2ccnc3c2CCC(=O)N3)ccc1NC(=O)Nc1cc(C(C)(C)C)nn1-c1ccc(C)cc1 [(by)]", "≥ 75%"],
  ["CC(C)(C)c1cc(NC(=O)Nc2ccc(Oc3ccncc3)cc2)n(-c2ccccc2)n1 [(bl)]", "50 to 75%"],
  ["CC(C)(C)c1cc(NC(=O)Nc2ccc(Oc3ccnc4[nH]c(=O)cnc34)cc2Cl)n(-c2ccccc2)n1 [(ak)]", "≥ 75%"],
  ["CC(C)(C)c1cc(NC(=O)Nc2ccc(Oc3ccnc4[nH]c(=O)cnc34)c3ccccc23)n(-c2ccc3ncccc3c2)n1 [(bb)]", "≥ 75%"]
]}

Lab note: each molecule below needs its Emax filled in.
1. CSc1cc(Oc2ccnc3[nH]c(=O)cnc23)ccc1NC(=O)Nc1cc(C(C)(C)C)nn1-c1ccc(OCCCN(C)C)cc1 [(cr)]
2. CSc1cc(Oc2ccnc3[nH]c(=O)ccc23)ccc1NC(=O)Nc1cc(C(C)(C)C)nn1-c1ccccc1 [(do)]
3. CC(=O)Nc1cc(Oc2ccc(NC(=O)Nc3cc(C(C)(C)C)nn3-c3ccccc3)c(F)c2)ccn1 [(ae)]
4. CSc1cc(Oc2ccnc3c2CCC(=O)N3)ccc1NC(=O)Nc1cc(C(C)(C)C)nn1-c1cccc(Cl)c1 [(bz)]
5. CSc1cc(Oc2ccnc3[nH]c(=O)cnc23)ccc1NC(=O)Nc1cc(C(C)(C)C)nn1-c1ccc(Cl)cc1 [(ao)]
6. CC(C)(C)c1cc(NC(=O)Nc2ccc(Oc3ccnc4[nH]c(=O)cnc34)cc2F)n(CCN2CCOCC2)n1 [(k)]

Response:
["≥ 75%", "≥ 75%", "50 to 75%", "≥ 75%", "≥ 75%", "50 to 75%"]
